# experiment: Plasma pharmacokinetics of bimiralisib, non-compartmental analysis (LC-MS)
# Type: in vivo, human
# appliedConditions: human, plasma, oral, 200 mg, Intermittent Dose Schedule B, 200 mg, Day 8, 4 patients; read-out: AUC0–8 Geometric Mean (%CV)
observationType: AUC(0-t) (ng·h/mL)
Quick reminder: number only, in ng·h/mL, skip the unit.

AUC(0-t) reading for Nc1cc(C(F)(F)F)c(-c2nc(N3CCOCC3)nc(N3CCOCC3)n2)cn1 [bimiralisib] : 5800

----------
# experiment: Plasma pharmacokinetics of bimiralisib, non-compartmental analysis (LC-MS)
# Assay type: in vivo, human
# appliedConditions: human, plasma, oral, 80 mg, Continuous Dosing, 80 mg, Day 15, 7 patients; read-out: AUC0–8 Geometric Mean (%CV)
observationType: AUC(0-t)
Quote the value and follow it with the unit of measurement.

AUC(0-t) reading for Nc1cc(C(F)(F)F)c(-c2nc(N3CCOCC3)nc(N3CCOCC3)n2)cn1 [bimiralisib] : 4090 ng·h/mL

Origin of the recorded values: paper PMC10969742
